Recorded measurements of pKd, one per entry
TARGET OR TEST SYSTEM: T1, human BMP-11 (GDF-11; R&D Systems) (human, UniProt O95390 299-407)
T1 sequence (looked up): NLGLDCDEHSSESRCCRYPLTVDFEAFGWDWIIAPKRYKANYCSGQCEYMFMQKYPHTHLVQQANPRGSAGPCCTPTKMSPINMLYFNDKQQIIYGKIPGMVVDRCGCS
PROTOCOL: SPR format A, 25C
Worth noting: pKd values are minus log10 of concentrations stated in mol/L.

| BINDER | pKd |
| --- | --- |
| 2525_D05 (designed binder) MGVSDVPRDLEVVAATPTSLLISWSLPYAGHLNYYRITYGETGGNSPVQEFTVPGRGVTATISGLKPGVDYTITVYAVTLTKSQLIHYMPISINYRTEIDKPSQHHHHHH | 8.70 |

From here, focus on the item given below.
Look at this binder and give its reported pKd. ATI-1376 [40K 2-branch PEG] (designed binder, 40K 2-branch PEG on the Cys of the EGSGC tail, cysteine mutant of 3115_E06) MGVSDVPRDLEVVAATPTSLLISWDAPAGLARYYRITYGETGGNSPVQEFTVVGRGNTATISGLKPGVDYTITVYAVTIFRDGPVTWDPISINYRTEGSGCHHHHHH
7.87
